A collection of compounds and their measured IC50
SYSTEM UNDER TEST: SARM1 SAM-TIR (Homo sapiens)
Construct: a fragment of the SARM1 molecule encompassing the SAM and TIR domains; made in house; host or cells: NRK1-HEK293T cells, transiently transfected; the cleared, unpurified lysate was used as the enzyme
TEST PROTOCOL: biochemical
ASSAY CONTEXT: SAM-TIR lysate 5 μg/mL, 2 h pre-incubation, 5 μM NAD+, RapidFire MS of NAD+ and ADPR; read-out: SARM1 IC50

Worked examples follow.
[[record]]
compound = "N#Cc1c(Nc2ccccc2C(F)(F)F)sn(CCOCCOCCNC(=O)CCCC[C@@H]2SC[C@@H]3NC(=O)N[C@@H]32)c1=O [Example 178]"
recorded_value = "< 1 µM"

[[record]]
compound = "C[C@@H](c1ccccc1)n1sc(Nc2ccccc2C(F)(F)F)c(C(=N)N(C)C)c1=O [Example 128]"
recorded_value = "< 1 µM"

[[record]]
compound = "Cc1ccccc1Nc1snc(O)c1C#N [Example 7]"
recorded_value = "1 to 5 µM"


What the record says about N#Cc1c(O)nsc1Nc1c(Cl)cccc1Cl [Example 16] : IC50 is < 1 µM

What the record says about N#Cc1c(Nc2cccc(C(N)=O)c2C(F)(F)F)s[nH]c1=O [Example 108] : IC50 is 1 to 5 µM

---

A collection of compounds and their measured pIC50
SYSTEM UNDER TEST: SARM1 SAM-TIR (Homo sapiens, UniProt Q6SZW1)
Construct: a fragment of the SARM1 molecule encompassing the SAM and TIR domains; made in house; host or cells: NRK1-HEK293T cells, transiently transfected; the cleared, unpurified lysate was used as the enzyme
TEST PROTOCOL: biochemical
ASSAY CONTEXT: SAM-TIR lysate 5 μg/mL, 2 h pre-incubation, 5 μM NAD+, RapidFire MS of NAD+ and ADPR; read-out: SARM1 IC50
pIC50: −log10 of the molar value.

Worked examples follow.
[[record]]
smiles_entry = "COc1cccc(C)c1Nc1sn(C)c(=O)c1C#N"
recorded_value = "> 6.00"

[[record]]
smiles_entry = "Cn1sc(Nc2c(Br)ccc3ncccc23)c(C#N)c1=O"
recorded_value = "> 6.00"

[[record]]
smiles_entry = "N#Cc1c(Nc2ccccc2C(F)(F)F)sn(CC2(O)CC2)c1=O"
recorded_value = "> 6.00"


What the record says about CN(C)C(=N)c1c(Nc2c(Cl)ccc3ncccc23)s[nH]c1=O : pIC50 is 5.30 to 6.00

What the record says about N#Cc1c(O)nsc1Nc1ccccc1OC(F)(F)F : pIC50 is > 6.00

What the record says about CN(C(=O)c1c(Nc2ccccc2C(F)(F)F)s[nH]c1=O)C1CCCCC1 : pIC50 is 5.30 to 6.00

What the record says about N#Cc1c(Nc2ccccc2C(F)(F)F)sn(CCC(N)=O)c1=O : pIC50 is > 6.00

What the record says about O=C(c1c(Nc2ccccc2C(F)(F)F)s[nH]c1=O)N1CC2CCC1CC2 : pIC50 is < 5.30

What the record says about Cn1sc(Nc2ccccc2C(F)(F)F)c(C#N)c1=O : pIC50 is > 6.00

What the record says about CN(C)CCn1sc(Nc2c(Cl)cccc2Cl)c(C#N)c1=O : pIC50 is > 6.00

---

SYSTEM UNDER TEST: SARM1 SAM-TIR (Homo sapiens)
Construct: a fragment of the SARM1 molecule encompassing the SAM and TIR domains; made in house; host or cells: NRK1-HEK293T cells, transiently transfected; the cleared, unpurified lysate was used as the enzyme
TEST PROTOCOL: biochemical
ASSAY CONTEXT: SAM-TIR lysate 5 μg/mL, 2 h pre-incubation, 5 μM NAD+, RapidFire MS of NAD+ and ADPR; read-out: SARM1 IC50
pIC50: −log10 of the molar value.
METRIC: pIC50

[[record]]
compound = "N#Cc1c(Nc2ccccc2C(F)(F)F)sn(CCC(=O)N2CCC(N3CCC3)CC2)c1=O [Example 78]"
metric = "pIC50"
recorded_value = "> 6.00"


What the record says about Cn1ccc(Cn2sc(Nc3ccccc3C(F)(F)F)c(C#N)c2=O)n1 [Example 56] : pIC50 is > 6.00

What the record says about COCCn1sc(Nc2cccc(Cl)c2Cl)c(C(=N)N2CCCCC2)c1=O [Example 127] : pIC50 is > 6.00

What the record says about COCC(C)n1sc(Nc2ccccc2C(F)(F)F)c(C#N)c1=O (stereo not shown) [Example 74] : pIC50 is > 6.00

What the record says about N#Cc1c(O)nsc1Nc1ccc2ccccc2c1 [Example 28] : pIC50 is 5.30 to 6.00

What the record says about Cc1cccc(C)c1Nc1snc(O)c1C#N [Example 22] : pIC50 is 5.30 to 6.00

---

SYSTEM UNDER TEST: SARM1 SAM-TIR (Homo sapiens)
Construct: a fragment of the SARM1 molecule encompassing the SAM and TIR domains; made in house; host or cells: NRK1-HEK293T cells, transiently transfected; the cleared, unpurified lysate was used as the enzyme
Sequence (Q6SZW1 409-724 limits assumed): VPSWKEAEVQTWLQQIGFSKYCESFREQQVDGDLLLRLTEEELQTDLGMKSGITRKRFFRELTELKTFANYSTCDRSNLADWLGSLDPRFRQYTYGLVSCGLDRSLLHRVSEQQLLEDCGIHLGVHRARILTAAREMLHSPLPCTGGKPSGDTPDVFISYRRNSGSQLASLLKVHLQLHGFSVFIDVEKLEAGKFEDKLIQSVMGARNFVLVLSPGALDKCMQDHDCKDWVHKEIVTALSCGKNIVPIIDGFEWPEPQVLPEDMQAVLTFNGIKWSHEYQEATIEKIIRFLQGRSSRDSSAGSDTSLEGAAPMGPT
TEST PROTOCOL: biochemical
ASSAY CONTEXT: SAM-TIR lysate 5 μg/mL, 2 h pre-incubation, 5 μM NAD+, RapidFire MS of NAD+ and ADPR; read-out: SARM1 IC50
pIC50: −log10 of the molar value.
A collection of compounds and their measured pIC50

Worked examples follow.
[[record]]
smiles_entry = "CN(c1ccccc1C(F)(F)F)c1snc(O)c1C#N"
metric = "pIC50"
recorded_value = "< 5.30"

[[record]]
smiles_entry = "Cn1sc(Nc2cccc(Cl)c2Cl)c(C#N)c1=O"
metric = "pIC50"
recorded_value = "> 6.00"

[[record]]
smiles_entry = "CN(C(=O)c1c(Nc2ccccc2C(F)(F)F)s[nH]c1=O)c1ccccc1"
metric = "pIC50"
recorded_value = "5.30 to 6.00"

[[record]]
smiles_entry = "Cc1ccc2c(Nc3sn(C)c(=O)c3C#N)c(Cl)ccc2n1"
metric = "pIC50"
recorded_value = "> 6.00"


--- query ---
What the record says about CN(C)C(=N)c1c(Nc2cccc(Cl)c2Cl)s[nH]c1=O : pIC50 is > 6.00

---

SYSTEM UNDER TEST: SARM1 SAM-TIR (Homo sapiens);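 further: inhibition of SARM1 SAM-TIR NADase activity, i.e. NAD+ cleavage, using lysate of NRK1-HEK293T cells overexpressing the SAM-TIR fragment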
Construct: a fragment of the SARM1 molecule encompassing the SAM and TIR domains; made in house; host or cells: NRK1-HEK293T cells, transiently transfected; the cleared, unpurified lysate was used as the enzyme
Sequence (Q6SZW1 409-724 limits assumed): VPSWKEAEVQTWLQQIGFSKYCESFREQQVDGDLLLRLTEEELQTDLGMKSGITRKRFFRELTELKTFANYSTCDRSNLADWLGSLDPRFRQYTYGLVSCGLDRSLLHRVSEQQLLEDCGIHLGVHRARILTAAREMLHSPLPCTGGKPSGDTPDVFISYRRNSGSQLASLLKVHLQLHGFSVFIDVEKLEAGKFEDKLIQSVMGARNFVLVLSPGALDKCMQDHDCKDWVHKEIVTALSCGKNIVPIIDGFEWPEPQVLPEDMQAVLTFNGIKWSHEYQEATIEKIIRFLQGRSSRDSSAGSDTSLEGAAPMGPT
TEST PROTOCOL: biochemical
ASSAY CONTEXT: SAM-TIR lysate 5 μg/mL, 2 h pre-incubation, 5 μM NAD+, RapidFire MS of NAD+ and ADPR; read-out: SARM1 IC50
METRIC: IC50

Worked examples follow.
[[record]]
smiles_entry = "N#Cc1c(Nc2ccccc2C(F)(F)F)sn(CCc2ccccc2)c1=O"
metric = "IC50"
recorded_value = "< 1 µM"

[[record]]
smiles_entry = "N#Cc1c(NC2CCCCC2)s[nH]c1=O"
metric = "IC50"
recorded_value = "> 5 µM"

[[record]]
smiles_entry = "O=c1[nH]sc(Nc2ccccc2C(F)(F)F)c1-c1ccccc1"
metric = "IC50"
recorded_value = "> 5 µM"

[[record]]
smiles_entry = "C[C@@H](c1ccccc1)n1sc(Nc2c(Cl)cccc2Cl)c(C(=N)N(C)C)c1=O"
metric = "IC50"
recorded_value = "1 to 5 µM"

[[record]]
smiles_entry = "Cn1sc(Nc2c(Cl)ccc3c2cnn3C)c(C#N)c1=O"
metric = "IC50"
recorded_value = "< 1 µM"


What the record says about O=C(c1c(Nc2c(Cl)cccc2Cl)s[nH]c1=O)N1CCOCC1 : IC50 is 1 to 5 µM

What the record says about CCCn1sc(Nc2ccccc2C(F)(F)F)c(C#N)c1=O : IC50 is < 1 µM

What the record says about COc1ccc(Cn2sc(N(CCF)c3ccccc3C(F)(F)F)c(C#N)c2=O)cc1 : IC50 is > 5 µM

What the record says about Cn1sc(Nc2c(F)cccc2Cl)c(C(=O)N2CCOCC2)c1=O : IC50 is 1 to 5 µM
